# target-of-assay: UniProt P08684
# Sequence (P08684 whole entry): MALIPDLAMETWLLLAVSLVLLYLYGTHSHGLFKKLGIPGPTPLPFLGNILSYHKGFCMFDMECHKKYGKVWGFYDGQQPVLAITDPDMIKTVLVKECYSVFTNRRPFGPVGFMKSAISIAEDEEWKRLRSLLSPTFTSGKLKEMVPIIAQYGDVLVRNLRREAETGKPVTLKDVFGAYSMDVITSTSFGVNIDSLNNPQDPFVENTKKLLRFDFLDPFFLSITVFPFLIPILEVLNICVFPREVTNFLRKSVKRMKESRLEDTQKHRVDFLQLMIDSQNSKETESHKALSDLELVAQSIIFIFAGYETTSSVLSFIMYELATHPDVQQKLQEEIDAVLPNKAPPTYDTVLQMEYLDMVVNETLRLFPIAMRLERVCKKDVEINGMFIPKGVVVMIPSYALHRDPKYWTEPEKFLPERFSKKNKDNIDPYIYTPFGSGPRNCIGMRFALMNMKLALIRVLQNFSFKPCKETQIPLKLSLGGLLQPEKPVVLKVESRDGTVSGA
# protocol-text: CYP MUX (3A4) RI
# Assay type: in vitro ADME
# experimental-conditions: human liver microsomes, substrate testosterone, 37° C. 10 min
observed-property: IC50 (µM)

A. Cc1cccc(-c2ccc(/C=C/[C@@H]3[C@@H]4[C@@H](C)OC(=O)[C@]4(c4n[nH]c(=O)o4)CC(F)(F)[C@H]3C)nc2)c1C#N
B. C[C@H]1OC(=O)[C@]2(c3cc[nH]n3)CC(F)(F)[C@@H](C)[C@H](/C=C/c3ccc(-c4ccccc4C#N)cn3)[C@H]12
Given the two records A and B , choose the one whose IC50 value is lower. Please respond with the label that marks your chosen entry.
B

P. Cc1cccc(-c2ccc(/C=C/[C@@H]3[C@@H]4[C@@H](C)OC(=O)[C@]4(c4nnc(N)o4)CC(F)(F)[C@H]3C)nc2)c1C#N
Q. C[C@H]1OC(=O)[C@]2(c3n[nH]c(=O)o3)CC(F)(F)[C@@H](C)[C@H](/C=C/c3ccc(-c4ccccc4C#N)cn3)[C@H]12
Given the two records P and Q , choose the one whose IC50 value is lower. Please respond with the label that marks your chosen entry.
P

1. C[C@H]1OC(=O)[C@]2(c3nnc(N)o3)CC(F)(F)[C@@H](C)[C@H](/C=C/c3ccc(-c4ccccc4C#N)cn3)[C@H]12
2. Cc1cccc(-c2ccc(/C=C/[C@@H]3[C@@H]4[C@@H](C)OC(=O)[C@]4(c4cc(C)n(C)n4)CC(F)(F)[C@H]3C)nc2)c1C#N
// max by IC50 over [ 1 , 2 ] Please respond with the label that marks your chosen entry.
2
(2: 17.6 µM, 1: 9.9 µM)

I. Cc1nnc([C@@]23CC(F)(F)[C@@H](C)[C@H](/C=C/c4ccc(-c5cccc(C)c5C#N)cn4)[C@@H]2[C@@H](C)OC3=O)o1
II. C[C@H]1OC(=O)[C@]2(c3cc[nH]n3)CC(F)(F)[C@@H](C)[C@H](/C=C/c3ccc(-c4cccnc4C#N)cn3)[C@H]12
Given the two records I and II , choose the one whose IC50 value is lower. Please respond with the label that marks your chosen entry.
II
(II: 8.8 µM, I: 16.9 µM)

====

# target-of-assay: PAR-1 receptor (Homo sapiens (Human), UniProt P25116)
# Sequence (P25116 22-425): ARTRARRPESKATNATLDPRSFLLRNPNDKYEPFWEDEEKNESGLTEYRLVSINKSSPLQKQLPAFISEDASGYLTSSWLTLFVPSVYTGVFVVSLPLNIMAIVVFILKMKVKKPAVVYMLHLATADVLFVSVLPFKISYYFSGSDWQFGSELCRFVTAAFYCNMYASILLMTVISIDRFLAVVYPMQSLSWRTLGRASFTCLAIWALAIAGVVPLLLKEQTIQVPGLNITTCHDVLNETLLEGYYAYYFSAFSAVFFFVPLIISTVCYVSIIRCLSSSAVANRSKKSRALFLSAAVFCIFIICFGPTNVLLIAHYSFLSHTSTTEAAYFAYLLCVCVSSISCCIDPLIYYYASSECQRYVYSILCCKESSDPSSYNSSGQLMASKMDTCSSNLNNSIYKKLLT
# protocol-text: PAR-1 FLIPR Assay
# experimental-conditions: HEK 293 cells, calcium signal after PAR-1 selective receptor-activating peptide at EC80
observed-property: IC50 (nM)

Consider the reported IC50 for these compounds:
Cc1cccc(-c2ccc(/C=C/[C@@H]3[C@@H]4[C@@H](C)OC(=O)[C@]4(c4cc(C)n(C)n4)CC(F)(F)[C@H]3C)nc2)c1C#N; 6.3
Cc1cccc(-c2ccc(/C=C/[C@@H]3[C@@H]4[C@@H](C)OC(=O)[C@]4(c4n[nH]c(=O)o4)CC(F)(F)[C@H]3C)nc2)c1C#N; 1.34

P. C[C@H]1OC(=O)[C@]2(c3n[nH]c(=O)o3)CC(F)(F)[C@@H](C)[C@H](/C=C/c3ccc(-c4cccc(F)c4)cn3)[C@H]12
Q. Cc1cccc(-c2ccc(/C=C/[C@@H]3[C@@H]4[C@@H](C)OC(=O)[C@]4(c4nnc(N)o4)CC(F)(F)[C@H]3C)nc2)c1C#N
R. C[C@H]1OC(=O)[C@]2(c3cc(C(C)(C)C)[nH]n3)CC(F)(F)[C@@H](C)[C@H](/C=C/c3ccc(-c4ccccc4C#N)cn3)[C@H]12
S. C[C@H]1OC(=O)[C@]2(c3cc[nH]n3)CC(F)(F)[C@@H](C)[C@H](/C=C/c3ccc(-c4cccnc4C#N)cn3)[C@H]12
T. C[C@H]1OC(=O)[C@]2(c3n[nH]c(=O)o3)CC(F)(F)[C@@H](C)[C@H](/C=C/c3ccc(-c4ccccc4C#N)cn3)[C@H]12
Arrange these compounds by their IC50, starting with the largest number. Use the labels to give the requested order.
P, R, S, T, Q
